# Experimental system: α4β2 nAChR Subtype (Rattus norvegicus, UniProt P09483+P12390)
# Sequence (P09483 31-630): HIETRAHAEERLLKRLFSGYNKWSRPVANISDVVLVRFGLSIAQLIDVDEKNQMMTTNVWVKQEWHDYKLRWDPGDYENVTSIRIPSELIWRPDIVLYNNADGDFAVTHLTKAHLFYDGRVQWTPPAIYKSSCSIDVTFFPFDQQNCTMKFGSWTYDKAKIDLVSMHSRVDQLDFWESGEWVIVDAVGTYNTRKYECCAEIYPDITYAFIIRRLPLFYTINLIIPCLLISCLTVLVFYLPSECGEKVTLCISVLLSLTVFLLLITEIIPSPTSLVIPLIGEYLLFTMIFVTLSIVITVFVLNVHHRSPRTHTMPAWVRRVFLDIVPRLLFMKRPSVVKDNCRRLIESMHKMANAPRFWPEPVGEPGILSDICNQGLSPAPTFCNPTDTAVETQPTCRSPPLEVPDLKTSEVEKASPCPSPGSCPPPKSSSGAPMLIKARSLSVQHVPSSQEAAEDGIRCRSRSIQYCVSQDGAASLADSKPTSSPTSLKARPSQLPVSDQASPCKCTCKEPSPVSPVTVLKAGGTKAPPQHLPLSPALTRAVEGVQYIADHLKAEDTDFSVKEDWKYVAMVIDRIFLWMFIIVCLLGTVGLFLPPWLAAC
# Sequence (P12390 25-500): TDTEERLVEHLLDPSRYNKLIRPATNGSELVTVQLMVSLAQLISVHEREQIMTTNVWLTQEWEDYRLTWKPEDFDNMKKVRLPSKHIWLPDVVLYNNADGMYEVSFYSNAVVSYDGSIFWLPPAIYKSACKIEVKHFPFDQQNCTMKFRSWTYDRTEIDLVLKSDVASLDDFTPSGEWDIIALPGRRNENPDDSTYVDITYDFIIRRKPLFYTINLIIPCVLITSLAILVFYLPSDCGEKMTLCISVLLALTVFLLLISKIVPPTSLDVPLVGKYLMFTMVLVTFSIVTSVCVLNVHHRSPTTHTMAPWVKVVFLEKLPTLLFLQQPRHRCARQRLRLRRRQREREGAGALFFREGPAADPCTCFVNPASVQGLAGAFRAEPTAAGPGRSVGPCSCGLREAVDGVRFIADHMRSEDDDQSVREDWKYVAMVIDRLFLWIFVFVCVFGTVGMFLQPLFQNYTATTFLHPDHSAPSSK
# Assay: Radioligand binding at α4β2 nAChR subtype, inhibition of [3H]nicotine binding, rat cerebral cortex membranes
# Study conditions: [3H]nicotine 5 nM, read-out: Rat α4β2 Ki
Assay endpoint: Ki (nM)
Answer format: numeric, nM implied, no suffix.

CCC(C)NC(=O)C1CC2CNCC(C2)C1 (stereo not drawn) = 272
O=C(C1CCCC1)C1C[C@H]2CNC[C@H]2C1 (mixture of isomers) = 15.9
CCCNC(=O)C1CC2CNCC(C2)C1 (stereo not drawn) = 21.4

Memo: O=C(NCC1CC1)C1CC2CNCC(C2)C1 (stereo not drawn) , reported Ki: 69.1

Memo: COCC(=O)C1C[C@H]2CNC[C@H]2C1.O=C(O)C(F)(F)F (mixture of isomers) [trifluoroacetate] , reported Ki: 32

Memo: O=C(OC1CC=CC1)C1C[C@H]2CNC[C@H]2C1 (mixture of isomers) , reported Ki: 59.3

---

# Experimental system: α7 nAChR Subtype (Rattus norvegicus, UniProt Q05941)
# Sequence (Q05941 23-502): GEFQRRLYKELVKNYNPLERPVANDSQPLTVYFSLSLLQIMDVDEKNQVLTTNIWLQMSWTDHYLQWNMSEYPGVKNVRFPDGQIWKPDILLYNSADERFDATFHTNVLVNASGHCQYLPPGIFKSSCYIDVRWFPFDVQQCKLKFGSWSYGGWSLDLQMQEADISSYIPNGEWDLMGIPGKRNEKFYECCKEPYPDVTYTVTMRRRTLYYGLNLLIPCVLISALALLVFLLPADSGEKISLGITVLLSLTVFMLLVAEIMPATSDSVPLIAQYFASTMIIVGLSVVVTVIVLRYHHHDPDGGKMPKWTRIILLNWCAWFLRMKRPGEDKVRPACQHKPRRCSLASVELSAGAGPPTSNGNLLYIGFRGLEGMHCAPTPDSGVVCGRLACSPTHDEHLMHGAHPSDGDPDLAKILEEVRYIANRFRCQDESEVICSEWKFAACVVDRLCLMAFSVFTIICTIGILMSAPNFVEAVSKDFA
# Assay: Radioligand binding at α7 nAChR subtype, inhibition of [3H]MLA binding, rat hippocampus membranes (HTS at 5 μM, then Ki)
# Study conditions: read-out: α7 Ki; [3H]MLA 5 nM, rat hippocampus
pKi: −log10 of the molar value.
Assay endpoint: pKi

CCC(C)NC(=O)C1CC2CNCC(C2)C1 (stereo not drawn) = < 5.00
O=C(NCC(F)(F)F)C1CC2CNCC(C2)C1 (stereo not drawn) = < 5.00
CC(=O)C1C[C@H]2CNC[C@H]2C1 (mixture of isomers) = < 5.00
O=C(C1C[C@H]2CNC[C@H]2C1)N1CCCCO1 (mixture of isomers) = ≤ 5.00
O=C(OC1CC=CC1)C1C[C@H]2CNC[C@H]2C1 (mixture of isomers) = < 5.00

Moving on to another compound below.
Memo: C=CCC(C)OC(=O)C1C[C@H]2CNC[C@H]2C1 (mixture of isomers) , reported pKi: < 5.00

---

# Experimental system: α4β2 nAChR Subtype (Rattus norvegicus, UniProt P09483+P12390)
# Assay: Radioligand binding at α4β2 nAChR subtype, inhibition of [3H]nicotine binding, rat cerebral cortex membranes
# Study conditions: [3H]nicotine 5 nM, read-out: Rat α4β2 Ki
Assay endpoint: Ki (nM)
Answer format: numeric, nM implied, no suffix.

C=CCNC(=O)C1C[C@H]2CNC[C@H]2C1 (mixture of isomers) = 419
O=C(NC1CC=CC1)C1CC2CNCC(C2)C1 (centres unmarked) = 45.3
O=C(NCCCF)C1CC2CNCC(C2)C1 (centres unmarked) = 44.7

Memo: C=CCNC(=O)C1CC2CNCC(C2)C1 (centres unmarked) , reported Ki: 30.6

Memo: CNC(=O)C1CC2CNCC(C2)C1 (centres unmarked) , reported Ki: 6

Memo: O=C(OC1CCCC1)C1C[C@H]2CNC[C@H]2C1 (mixture of isomers) , reported Ki: 26.6

Memo: COC(=O)C1C[C@H]2CNC[C@H]2C1 (mixture of isomers) , reported Ki: 20

---

Collected Ki values appear next to each entry.
# Experimental system: α4β2 nAChR Subtype (Rattus norvegicus, UniProt P09483+P12390)
# Assay: Radioligand binding at α4β2 nAChR subtype, inhibition of [3H]nicotine binding, rat cerebral cortex membranes
# Study conditions: Rat α4β2 Ki, [3H]nicotine 5 nM
Answer format: numeric, nM implied, no suffix.

C/C=C/C(=O)C1C[C@H]2CNC[C@H]2C1 (some centres unmarked) = 15.4
O=C(C1=CC2CNCC2C1)c1ccco1.O=C(O)C(F)(F)F (centres unmarked) [trifluoroacetate] = 8
O=C(c1ccco1)[C@@H]1C[C@H]2CNC[C@H]2C1 = 463
CN(C)C(=O)C1CC2CNCC(C2)C1 (centres unmarked) = 78

Moving on to another compound below.
GET /values?item= O=C(NCCF)C1CC2CNCC(C2)C1 (centres unmarked) &system= α4β2 nAChR Subtype (Rattus norvegicus, UniProt P09483+P12390) returns Ki: 122

---

# Experimental system: Human α4β2 (Homo sapiens, UniProt P17787+P43681)
# Sequence (P43681 29-627 limits assumed): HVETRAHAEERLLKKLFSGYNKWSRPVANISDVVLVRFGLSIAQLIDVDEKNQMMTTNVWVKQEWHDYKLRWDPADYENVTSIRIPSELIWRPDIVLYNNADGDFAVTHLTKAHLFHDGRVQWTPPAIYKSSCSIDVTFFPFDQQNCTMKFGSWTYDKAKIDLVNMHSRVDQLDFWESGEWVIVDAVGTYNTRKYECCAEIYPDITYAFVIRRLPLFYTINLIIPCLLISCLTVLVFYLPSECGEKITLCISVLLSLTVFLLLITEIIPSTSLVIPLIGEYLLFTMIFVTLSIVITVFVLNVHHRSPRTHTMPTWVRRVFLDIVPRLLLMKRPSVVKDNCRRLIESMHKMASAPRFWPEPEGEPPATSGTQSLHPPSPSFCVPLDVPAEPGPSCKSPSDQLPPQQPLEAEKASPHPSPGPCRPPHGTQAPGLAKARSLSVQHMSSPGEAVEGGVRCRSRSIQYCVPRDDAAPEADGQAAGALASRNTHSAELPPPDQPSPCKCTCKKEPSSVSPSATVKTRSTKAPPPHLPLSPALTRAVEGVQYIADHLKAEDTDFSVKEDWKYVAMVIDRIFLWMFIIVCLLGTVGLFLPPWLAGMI
# Sequence (P17787 26-502): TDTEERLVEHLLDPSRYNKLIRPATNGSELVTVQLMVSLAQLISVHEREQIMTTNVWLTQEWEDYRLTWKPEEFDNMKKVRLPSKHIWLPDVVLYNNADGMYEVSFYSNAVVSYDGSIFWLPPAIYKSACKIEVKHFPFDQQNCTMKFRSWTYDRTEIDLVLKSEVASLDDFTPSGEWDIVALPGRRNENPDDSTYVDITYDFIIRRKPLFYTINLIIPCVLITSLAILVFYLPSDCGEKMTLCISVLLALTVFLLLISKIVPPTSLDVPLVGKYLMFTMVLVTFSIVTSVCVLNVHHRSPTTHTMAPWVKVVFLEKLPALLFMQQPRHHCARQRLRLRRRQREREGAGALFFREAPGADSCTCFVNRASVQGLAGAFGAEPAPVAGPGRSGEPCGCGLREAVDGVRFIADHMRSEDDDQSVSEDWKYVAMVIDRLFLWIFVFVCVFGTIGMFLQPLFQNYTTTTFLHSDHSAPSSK
# Assay: Binding at human α4β2 (Ki); method not described
Assay endpoint: pKi
# reply with the number alone; pKi is -log10 of concentration in mol/L

Worked examples, 10 compounds total:
O=C(OCc1ccoc1)C1C[C@H]2CNC[C@H]2C1 (mixture of isomers) = 7.79
O=C(C1CCCCC1)C1C[C@H]2CNC[C@H]2C1 (mixture of isomers) = 7.35
O=C(CF)C1CC2CNCC2C1 (single isomer, unassigned; isomer 1) [trifluoroacetate] = 6.75
O=C(NC1CC=CC1)C1CC2CNCC(C2)C1 (centres unmarked) = 7.61
CC(C)(C)NC(=O)C1CC2CNCC(C2)C1 (centres unmarked) = 8.15
O=C(OCCF)C1C[C@H]2CNC[C@H]2C1 (mixture of isomers) = 6.99
CN(C)C(=O)C1CC2CNCC(C2)C1 (centres unmarked) = 7.27
CC(CF)OC(=O)C1C[C@H]2CNC[C@H]2C1 (mixture of isomers) = 6.95
O=C(C1=CC2CNCC2C1)c1ccco1.O=C(O)C(F)(F)F (centres unmarked) [trifluoroacetate] = 8.70
O=C(OC1CCOC1)C1C[C@H]2CNC[C@H]2C1 (some centres unmarked) = 6.92

GET /values?item= C=CCNC(=O)C1C[C@H]2CNC[C@H]2C1 (mixture of isomers) &system= Human α4β2 (Homo sapiens, UniProt P17787+P43681) returns pKi: 6.76

---

# Experimental system: α4β2 nAChR Subtype (Rattus norvegicus, UniProt P09483+P12390)
# Assay: Radioligand binding at α4β2 nAChR subtype, inhibition of [3H]nicotine binding, rat cerebral cortex membranes
# Study conditions: Rat α4β2 Ki, [3H]nicotine 5 nM
Collected pKi values appear next to each entry.
# reply with the number alone; pKi is -log10 of concentration in mol/L

Worked examples, 5 compounds total:
CC(C)C(=O)C1C[C@H]2CNC[C@H]2C1 (mixture of isomers) = 9.52
CN(C)C(=O)C1=C[C@@H]2CNC[C@@H]2C1 = 7.22
O=C(OCC1CC1)C1C[C@H]2CNC[C@H]2C1 (mixture of isomers) = 7.21
O=C(NCc1ccco1)C1C[C@H]2CNC[C@H]2C1 (mixture of isomers) = 6.57
CN(C)C(=O)[C@@H]1C[C@H]2CNC[C@H]2C1 = 7.54

Moving on to another compound below.
Memo: O=C(c1ccco1)[C@H]1C[C@H]2CNC[C@H]2C1 , reported pKi: 7.96

---

# Experimental system: α4β2 nAChR Subtype (Rattus norvegicus, UniProt P09483+P12390)
# Assay: Radioligand binding at α4β2 nAChR subtype, inhibition of [3H]nicotine binding, rat cerebral cortex membranes
# Study conditions: [3H]nicotine 5 nM, read-out: Rat α4β2 Ki
Collected Ki values appear next to each entry.
Answer format: numeric, nM implied, no suffix.

Worked examples, 5 compounds total:
CC(CF)OC(=O)C1C[C@H]2CNC[C@H]2C1 (mixture of isomers) = 271
O=C(C1C[C@H]2CNC[C@H]2C1)N1CCC[C@@H]1CO (mixture of isomers) = 387
CC(C)NC(=O)C1CC2CNCC(C2)C1 (stereo not drawn) = 82
CC(C)(C)C(=O)C1C[C@H]2CNC[C@H]2C1 (mixture of isomers) = 21.4
NC(=O)C1CC2CNCC(C2)C1 (stereo not drawn) [3-azabicyclo[3.3.1]nonane-7-carboxamide] = 40.5

Moving on to another compound below.
Memo: Cc1ccc(C(=O)C2C[C@H]3CNC[C@H]3C2)o1 (mixture of isomers) , reported Ki: 74.3

---

# Experimental system: Human α4β2 (Homo sapiens, UniProt P17787+P43681)
# Assay: Binding at human α4β2 (Ki); method not described
Assay endpoint: pKi
# reply with the number alone; pKi is -log10 of concentration in mol/L

Memo: O=C(OCC1CC1)C1C[C@H]2CNC[C@H]2C1 (mixture of isomers) , reported pKi: 7.39

Memo: O=C(OCC1CCOC1)C1C[C@H]2CNC[C@H]2C1 (mixture of isomers) , reported pKi: 7.32

Memo: O=C(c1occc1Br)C1C[C@H]2CNC[C@H]2C1 (mixture of isomers) , reported pKi: 9.05

Memo: O=C(Nc1cccnc1)C1CC2CNCC(C2)C1 (stereo not drawn) , reported pKi: 7.33

---

# Experimental system: Human α4β2 (Homo sapiens, UniProt P17787+P43681)
# Assay: Binding at human α4β2 (Ki); method not described
Assay endpoint: Ki (nM)
Answer format: numeric, nM implied, no suffix.

CC(C)(C)C(=O)C1C[C@H]2CNC[C@H]2C1 (mixture of isomers) = 4.2
CNC(=O)C1CC2CNCC(C2)C1 (centres unmarked) [Compound B] = 2
CCC(C)C(=O)C1C[C@H]2CNC[C@H]2C1 (mixture of isomers) = 3.3
O=C(OC1CCC1)C1C[C@H]2CNC[C@H]2C1 (mixture of isomers) = 80.6
CC(C)C(=O)C1C[C@H]2CNC[C@H]2C1 (mixture of isomers) = 0.2
O=C(C1CCCC1)C1C[C@H]2CNC[C@H]2C1 (mixture of isomers) = 7.5
O=C(NCc1ccco1)C1C[C@H]2CNC[C@H]2C1 (mixture of isomers) = 302
CN(C)C(=O)C1=C[C@@H]2CNC[C@@H]2C1 = 164

Memo: CN(C)C(=O)[C@H]1C[C@H]2CNC[C@H]2C1 , reported Ki: 1340

Memo: Cc1ccc(C(=O)C2C[C@H]3CNC[C@H]3C2)o1 (mixture of isomers) , reported Ki: 37

Memo: O=C(NC1CC1)C1CC2CNCC(C2)C1 (centres unmarked) , reported Ki: 15.6
